# protocol: Inhibition of HIV1 LAV gp120 binding to CD4 assessed as inhibition of CD4 expressing african green monkey BSC1 cells fusion to CXCR4 expressing mouse NIH3T3 cells after 2.5 hrs by beta-galactosidase assay
# Format: cell-based, Human immunodeficiency virus 1
result.type: IC50

Task: Give a short answer stating reported IC50 for CC[C@H]1C=CCC[C@@]2(C[C@@H]3CC[C@@H]4[C@H](C(=O)OCCCCCCCCCCCCCCCC5=NCCCN5CC(O)CCN)[C@]5(CCC[C@@H](C)O5)N=C(N2)N34)O1 (some centres undefined) [FROMIAMYCALIN] .
Result: 1 µM

Task: Give a short answer stating reported IC50 for CCCCCCCCCCCc1nc(=N)n2c(c1C(=O)OCCCCNC(=N)N)CCC2 [DEHYDROCRAMBINE A] .
Result: 35 µM

Task: Give a short answer stating reported IC50 for CC[C@H]1C=CCC[C@@]2(C[C@@H]3CC[C@@H]4[C@H](C(=O)OCCCCCCCCCCCCCCCCCC(=O)N(CCCN)CCCC(N)=O)[C@]5(CCC[C@@H](C)O5)N=C(N2)N34)O1 [CRAMBESCIDIN 826] .
Result: 1 µM

Task: Give a short answer stating reported IC50 for CC[C@H]1CCCC[C@@]2(C[C@@H]3CC[C@@H]4[C@H](C(=O)OCCCCCCCCCCCCCCCC(=O)N(CCCN)C[C@@H](O)CCN)[C@]5(CCC[C@@H](C)O5)N=C(N2)N34)O1 [CRAMBESCIDIN 800] .
Result: 1 µM
